Below, each of the molecules is paired with its reported pKd value.
biological target: GDP-bound KRAS wild-type protein (Homo sapiens, UniProt P01116); experiment: Binding to KRAS by surface plasmon resonance (SPR), Single Cycle Kinetics; details: SPR, Single Cycle Kinetics, GDP-bound KRAS wild-type protein; read-out: KRAS KD
Sequence (P01116 whole entry): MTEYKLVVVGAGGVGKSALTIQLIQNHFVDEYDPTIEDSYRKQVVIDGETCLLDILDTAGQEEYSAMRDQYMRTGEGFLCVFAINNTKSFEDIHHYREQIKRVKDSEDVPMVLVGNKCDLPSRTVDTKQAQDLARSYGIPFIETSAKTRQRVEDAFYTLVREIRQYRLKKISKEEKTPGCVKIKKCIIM
pKd is a log-scale quantity: -log10 of the concentration expressed in molar.

- structure: "CCO[C@@H]1C[C@H]2C(=O)NC3(CC(C)(C)C3)C(=O)N(C)[C@@H](C(CC)CC)C(=O)N(C)[C@H](C(=O)N3CCCC3)CC(=O)N(C)[C@@H](C)C(=O)N[C@@H]([C@@H](C)CC)C(=O)N(C)CC(=O)N(C)[C@H]3C/C=C\\CCN(C3=O)[C@@H](Cc3ccc(C)cc3)C(=O)N(C)CC(=O)N[C@@H](CCc3ccc(Cl)c(Cl)c3)C(=O)N2C1"
  pKd: 9.16

We next turn to a different molecule, shown below.
Incoming: Which pKd value belongs to CCC[C@H]1C(=O)N[C@@H]([C@@H](C)CC)C(=O)N(C2CC2)CC(=O)N(C)[C@H]2C/C=C\CCN(C2=O)[C@@H](Cc2ccc(C)cc2)C(=O)N(C)CC(=O)N[C@@H](CCc2cc(F)c(C(F)(F)F)c(F)c2)C(=O)N2C[C@H](OCC)C[C@H]2C(=O)NC2(CC(C)(C)C2)C(=O)N(C)[C@@H](C2CCCC2)C(=O)N(C)[C@H](C(=O)N(C)C)CC(=O)N1C ?
Outgoing: 9.48

----------
target: GDP-bound KRAS wild-type protein (Homo sapiens, UniProt P01116); test: Binding to KRAS by surface plasmon resonance (SPR), Single Cycle Kinetics; conditions: SPR, Single Cycle Kinetics, GDP-bound KRAS wild-type protein; read-out: KRAS KD
metricName: Kd (nM)
# output: bare number, implied unit nM

Solved cases (2 shown):
- structure: "CC[C@H](C)[C@@H]1NC(=O)[C@H](C2CCC2)N(C)C(=O)C[C@@H](C(=O)N(C)C)N(C)C(=O)[C@H](C2CCCC2)N(C)C(=O)C2(CC(C)(C)C2)NC(=O)[C@@H]2C[C@H](C)CN2C(=O)[C@H](CCc2ccc(C(F)(F)F)c(OC)c2)NC(=O)CN(C)C(=O)[C@H](Cc2ccc(C(F)(F)F)cc2)N2CC/C=C\\C[C@@H](C2=O)N(C)C(=O)CN(C)C1=O"
  targetOfAssay: "GDP-bound KRAS wild-type protein (Homo sapiens, UniProt P01116)"
  Kd, nM: 0.11
- structure: "CC[C@H](C)[C@@H]1NC(=O)[C@H](CC(C)C)N(C)C(=O)C[C@@H](C(=O)N2CCOCC2)N(C)C(=O)[C@H](C2CCCC2)N(C)C(=O)C2(CCC2)NC(=O)[C@@H]2[C@H](OC)CCN2C(=O)[C@H](CCc2cc(F)c(C(F)(F)F)c(F)c2)NC(=O)CN(C)C(=O)[C@H](Cc2ccc(C(F)(F)F)cc2)N2CCCCC[C@@H](C2=O)N(C)C(=O)CN(C)C1=O"
  targetOfAssay: "GDP-bound KRAS wild-type protein (Homo sapiens, UniProt P01116)"
  Kd, nM: 0.95

We next turn to a different compound, shown below.
Incoming: Which Kd value belongs to CCO[C@@H]1C[C@H]2C(=O)NC3(CC(C)(C)C3)C(=O)N(C)[C@@H](C3CCCC3)C(=O)N(C)[C@H](C(=O)N(C)CC)CC(=O)N(C)[C@@H](CC3CC3)C(=O)N[C@@H]([C@@H](C)CC)C(=O)N(C)CC(=O)N(C)[C@H]3C/C=C\CCN(C3=O)[C@@H](Cc3ccc(C(F)(F)F)cc3)C(=O)N(C)CC(=O)N[C@@H](CCc3ccc(C(F)(F)F)c(OC)c3)C(=O)N2C1 ?
Outgoing: 0.17
